biological target: MDR1 (Homo sapiens)
Endpoint Label: pIC50
pIC50 is defined as minus the log10 of a concentration measured in mol/L.

q: Notebook: pull reported pIC50 for MDR1 (Homo sapiens), entry COc1c(N2C[C@@H]3CCCN[C@@H]3C2)c(F)cc2c(=O)c(C(=O)O)cn(C3CC3)c12
a: 3.66

###

target: MRP2 (Homo sapiens, UniProt Q92887); experiment: Bi-directional transport of moxifloxacin across MDCK-MRP2 cells; type: in vitro ADME; conditions: human, pH 7.4
Sequence (Q92887 whole entry): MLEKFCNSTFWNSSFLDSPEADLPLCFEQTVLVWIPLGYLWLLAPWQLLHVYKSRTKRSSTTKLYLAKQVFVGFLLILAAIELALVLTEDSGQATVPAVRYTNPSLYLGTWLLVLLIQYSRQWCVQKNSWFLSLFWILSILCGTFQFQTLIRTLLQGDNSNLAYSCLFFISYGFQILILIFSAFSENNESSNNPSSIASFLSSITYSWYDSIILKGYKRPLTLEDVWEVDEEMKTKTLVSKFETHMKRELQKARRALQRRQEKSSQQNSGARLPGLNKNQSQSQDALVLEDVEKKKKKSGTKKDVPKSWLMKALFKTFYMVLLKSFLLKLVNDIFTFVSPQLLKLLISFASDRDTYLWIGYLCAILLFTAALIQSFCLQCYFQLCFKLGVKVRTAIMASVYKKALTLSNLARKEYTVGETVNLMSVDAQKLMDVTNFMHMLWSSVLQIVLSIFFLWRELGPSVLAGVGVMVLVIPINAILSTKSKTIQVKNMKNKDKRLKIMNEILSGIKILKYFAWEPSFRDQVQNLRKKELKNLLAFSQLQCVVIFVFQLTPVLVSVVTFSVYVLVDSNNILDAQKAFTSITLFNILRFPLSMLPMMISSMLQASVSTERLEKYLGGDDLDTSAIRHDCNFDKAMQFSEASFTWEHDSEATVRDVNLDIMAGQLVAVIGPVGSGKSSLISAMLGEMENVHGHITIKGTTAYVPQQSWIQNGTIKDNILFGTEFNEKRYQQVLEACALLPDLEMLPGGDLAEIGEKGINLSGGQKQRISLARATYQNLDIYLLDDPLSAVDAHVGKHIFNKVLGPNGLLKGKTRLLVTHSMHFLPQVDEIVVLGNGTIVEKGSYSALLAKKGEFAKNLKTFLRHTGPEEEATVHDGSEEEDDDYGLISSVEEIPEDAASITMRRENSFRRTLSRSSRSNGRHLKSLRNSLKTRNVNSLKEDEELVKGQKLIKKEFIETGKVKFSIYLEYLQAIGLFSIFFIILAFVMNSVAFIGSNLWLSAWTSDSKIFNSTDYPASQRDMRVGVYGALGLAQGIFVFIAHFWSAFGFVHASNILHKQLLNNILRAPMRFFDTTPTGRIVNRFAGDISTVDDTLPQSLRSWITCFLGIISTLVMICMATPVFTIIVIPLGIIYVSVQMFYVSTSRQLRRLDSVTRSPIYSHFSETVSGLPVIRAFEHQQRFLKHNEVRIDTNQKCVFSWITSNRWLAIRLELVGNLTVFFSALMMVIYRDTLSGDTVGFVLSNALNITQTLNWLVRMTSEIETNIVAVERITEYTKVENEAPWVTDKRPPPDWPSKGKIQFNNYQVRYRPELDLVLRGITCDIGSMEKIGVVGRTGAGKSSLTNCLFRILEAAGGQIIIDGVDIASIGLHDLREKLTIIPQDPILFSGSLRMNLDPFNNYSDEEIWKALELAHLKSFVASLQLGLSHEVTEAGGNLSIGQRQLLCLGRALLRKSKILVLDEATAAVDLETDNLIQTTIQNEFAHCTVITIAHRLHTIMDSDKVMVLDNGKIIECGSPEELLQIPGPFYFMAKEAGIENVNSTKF
Endpoint Label: Papp B→A at 500 µM (×10⁻⁶ cm/s)
Write down the numeric answer in ×10⁻⁶ cm/s and omit the unit.

q: Entry COc1c(N2C[C@@H]3CCCN[C@@H]3C2)c(F)cc2c(=O)c(C(=O)O)cn(C3CC3)c12 has what Papp B→A at 500 µM?
a: 1.97

###

molecular target: MRP2 (Homo sapiens, UniProt Q92887); test: in vitro; settings: dog
Endpoint Label: efflux ratio at 0.5 µCi/mL
// keep it numeric: no unit symbol after the value

q: // fetch MRP2 (Homo sapiens, UniProt Q92887) efflux ratio at 0.5 µCi/mL for CC[C@@]1(O)C(=O)OCc2c1cc1n(c2=O)Cc2cc3c(CN(C)C)c(O)ccc3nc2-1
a: 3.07

###

experiment: in vitro; conditions: dog, MDCK, pH 7.4
Endpoint Label: Papp A→B at 500 µM
# include the unit after the value

q: What value of Papp A→B at 500 µM has been recorded for this entry: COc1c(N2C[C@@H]3CCCN[C@@H]3C2)c(F)cc2c(=O)c(C(=O)O)cn(C3CC3)c12
a: 57 nm/s

###

Below, each of the compounds is paired with its reported Papp B→A at 0.5 µCi/mL value.
target: MRP2 (Homo sapiens); assay: in vitro; details: dog
# unit: ×10⁻⁶ cm/s | format: bare number

Example entries begin here.
COc1cc([C@@H]2c3cc4c(cc3[C@@H](O[C@@H]3O[C@@H]5CO[C@@H](C)O[C@H]5[C@H](O)[C@H]3O)[C@H]3COC(=O)[C@H]23)OCO4)cc(OC)c1O [Etoposide]    207
CC[C@@]1(O)C(=O)OCc2c1cc1n(c2=O)Cc2cc3c(CN(C)C)c(O)ccc3nc2-1 [Topotecan]    24.8

Next item in the queue.
q: So what does the record say about Papp B→A at 0.5 µCi/mL for CC[C@]1(O)C[C@@H]2CN(CCc3c([nH]c4ccccc34)[C@@](C(=O)OC)(c3cc4c(cc3OC)N(C)[C@H]3[C@@](O)(C(=O)OC)[C@H](OC(C)=O)[C@]5(CC)C=CCN6CC[C@]43[C@@H]65)C2)C1 [Vinblastine] ?
a: 73.8

###

molecular target: MDR1 (Homo sapiens, UniProt P08183); assay: in vitro; settings: MDCK-MDR1, pH 7.4
Sequence (P08183 whole entry): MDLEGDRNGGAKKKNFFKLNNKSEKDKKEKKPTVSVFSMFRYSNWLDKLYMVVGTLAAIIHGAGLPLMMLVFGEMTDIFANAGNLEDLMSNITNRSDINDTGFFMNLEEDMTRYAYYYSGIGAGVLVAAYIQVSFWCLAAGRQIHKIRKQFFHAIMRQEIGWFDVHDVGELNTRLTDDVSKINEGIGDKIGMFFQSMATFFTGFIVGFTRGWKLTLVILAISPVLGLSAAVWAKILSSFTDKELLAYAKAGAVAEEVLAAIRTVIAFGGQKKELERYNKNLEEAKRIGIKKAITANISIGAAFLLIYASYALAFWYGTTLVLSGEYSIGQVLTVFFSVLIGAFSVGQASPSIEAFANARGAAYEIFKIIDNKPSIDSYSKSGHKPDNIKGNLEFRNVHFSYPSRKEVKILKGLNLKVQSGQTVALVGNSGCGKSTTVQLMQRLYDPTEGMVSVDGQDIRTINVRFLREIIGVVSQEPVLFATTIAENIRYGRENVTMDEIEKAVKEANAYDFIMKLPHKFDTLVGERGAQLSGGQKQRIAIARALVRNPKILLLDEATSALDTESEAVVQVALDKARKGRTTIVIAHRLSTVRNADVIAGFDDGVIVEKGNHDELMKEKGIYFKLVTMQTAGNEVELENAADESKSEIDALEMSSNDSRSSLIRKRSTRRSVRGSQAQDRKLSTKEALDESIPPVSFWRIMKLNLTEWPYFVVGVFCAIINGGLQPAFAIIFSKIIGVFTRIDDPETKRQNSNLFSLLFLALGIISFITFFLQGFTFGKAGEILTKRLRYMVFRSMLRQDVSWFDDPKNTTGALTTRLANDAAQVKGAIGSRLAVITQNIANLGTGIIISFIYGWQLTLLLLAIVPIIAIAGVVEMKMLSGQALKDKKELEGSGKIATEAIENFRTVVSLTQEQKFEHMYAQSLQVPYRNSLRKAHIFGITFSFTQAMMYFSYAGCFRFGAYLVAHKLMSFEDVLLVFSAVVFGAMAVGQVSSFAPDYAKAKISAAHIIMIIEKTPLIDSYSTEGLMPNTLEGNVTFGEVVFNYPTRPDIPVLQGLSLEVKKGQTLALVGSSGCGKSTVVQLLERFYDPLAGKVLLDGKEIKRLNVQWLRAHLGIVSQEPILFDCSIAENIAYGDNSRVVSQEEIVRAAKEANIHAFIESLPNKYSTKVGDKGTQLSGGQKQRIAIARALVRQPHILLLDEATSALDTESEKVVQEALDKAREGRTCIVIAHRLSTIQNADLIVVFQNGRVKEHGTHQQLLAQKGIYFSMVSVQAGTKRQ
Endpoint Label: Papp B→A at 500 µM (×10⁻⁶ cm/s)
Please give a number only; it is taken to be in ×10⁻⁶ cm/s.

q: Query for MDR1 (Homo sapiens, UniProt P08183): what Papp B→A at 500 µM does the record show for COc1c(N2C[C@@H]3CCCN[C@@H]3C2)c(F)cc2c(=O)c(C(=O)O)cn(C3CC3)c12 [Moxifloxacin] ?
a: 20.5

###

Documented Papp A→B at 0.5 µCi/mL across a set of molecules
molecular target: UniProtKB P08183; experiment: in vitro; conditions: MDCK-MDR1
Entry rule: numbers only, all in ×10⁻⁶ cm/s.

The cases that follow already have their Papp A→B at 0.5 µCi/mL on record.
CC[C@@]1(O)C(=O)OCc2c1cc1n(c2=O)Cc2cc3c(CN(C)C)c(O)ccc3nc2-1    0.75
CC[C@]1(O)C[C@@H]2CN(CCc3c([nH]c4ccccc34)[C@@](C(=O)OC)(c3cc4c(cc3OC)N(C)[C@H]3[C@@](O)(C(=O)OC)[C@H](OC(C)=O)[C@]5(CC)C=CCN6CC[C@]43[C@@H]65)C2)C1    1.55

q: Form field: reported Papp A→B at 0.5 µCi/mL of COc1cc([C@@H]2c3cc4c(cc3[C@@H](O[C@@H]3O[C@@H]5CO[C@@H](C)O[C@H]5[C@H](O)[C@H]3O)[C@H]3COC(=O)[C@H]23)OCO4)cc(OC)c1O [Etoposide]
a: 3.57

###

molecular target: MRP2 (Homo sapiens, UniProt Q92887); experiment: Bi-directional transport of [14C]-erythromycin across MDCK-MRP2 cells; format: in vitro ADME; conditions: pH 7.4
Endpoint Label: Papp B→A at 3 h, 0.5 µCi/mL (×10⁻⁶ cm/s)
Number only, in ×10⁻⁶ cm/s; omit the unit.

q: Reported Papp B→A at 3 h, 0.5 µCi/mL for CC[C@H]1OC(=O)[C@H](C)[C@@H](O[C@H]2C[C@@](C)(OC)[C@@H](O)[C@H](C)O2)[C@H](C)[C@@H](O[C@@H]2O[C@H](C)C[C@H](N(C)C)[C@H]2O)[C@](C)(O)C[C@@H](C)C(=O)[C@H](C)[C@@H](O)[C@]1(C)O [[^14C]-erythromycin, Erythromycin] : what is it?
a: 2.7

###

molecular target: MDR1 (Homo sapiens, UniProt P08183); assay: Bi-directional transport of [14C]-erythromycin across MDCK-MDR1 cells; assay type: in vitro ADME; settings: MDCK-MDR1, pH 7.4
Endpoint Label: Papp A→B at 3 h, 0.5 µCi/mL (×10⁻⁶ cm/s)
Give just the numeric value; ×10⁻⁶ cm/s need not be written.

q: Hello, I am looking for reported Papp A→B at 3 h, 0.5 µCi/mL with MDR1 (Homo sapiens, UniProt P08183) for CC[C@H]1OC(=O)[C@H](C)[C@@H](O[C@H]2C[C@@](C)(OC)[C@@H](O)[C@H](C)O2)[C@H](C)[C@@H](O[C@@H]2O[C@H](C)C[C@H](N(C)C)[C@H]2O)[C@](C)(O)C[C@@H](C)C(=O)[C@H](C)[C@@H](O)[C@]1(C)O [[^14C]-erythromycin, Erythromycin] . Could you help?
a: 5.44

###

target: MRP2 (Homo sapiens, UniProt Q92887); test: Bi-directional transport of moxifloxacin across MDCK-MRP2 cells; format: in vitro ADME; conditions: human, pH 7.4
Endpoint Label: Papp A→B at 500 µM (×10⁻⁶ cm/s)
Give the number; ×10⁻⁶ cm/s is assumed, so skip it.

q: # get_value(readout='Papp A→B at 500 µM', item= COc1c(N2C[C@@H]3CCCN[C@@H]3C2)c(F)cc2c(=O)c(C(=O)O)cn(C3CC3)c12 )
a: 0.78

###

Below, each entry is listed with its recorded Papp B→A at 0.5 µCi/mL.
target: MDR1 (Homo sapiens, UniProt P08183); experiment: in vitro; conditions: MDCK-MDR1
Respond numerically; units are ×10⁻⁶ cm/s and should not be typed.

COc1cc([C@@H]2c3cc4c(cc3[C@@H](O[C@@H]3O[C@@H]5CO[C@@H](C)O[C@H]5[C@H](O)[C@H]3O)[C@H]3COC(=O)[C@H]23)OCO4)cc(OC)c1O [Etoposide]    11.6
CC[C@]1(O)C[C@@H]2CN(CCc3c([nH]c4ccccc34)[C@@](C(=O)OC)(c3cc4c(cc3OC)N(C)[C@H]3[C@@](O)(C(=O)OC)[C@H](OC(C)=O)[C@]5(CC)C=CCN6CC[C@]43[C@@H]65)C2)C1    10.2

API: the following record is the query input.
q: Looking for the measured Papp B→A at 0.5 µCi/mL of CC[C@@]1(O)C(=O)OCc2c1cc1n(c2=O)Cc2cc3c(CN(C)C)c(O)ccc3nc2-1 , can you help?
a: 3.5
